- assayed target: Substance-P receptor (Homo sapiens, UniProt P25103, F264Y)
- Sequence (P25103 whole entry F264Y): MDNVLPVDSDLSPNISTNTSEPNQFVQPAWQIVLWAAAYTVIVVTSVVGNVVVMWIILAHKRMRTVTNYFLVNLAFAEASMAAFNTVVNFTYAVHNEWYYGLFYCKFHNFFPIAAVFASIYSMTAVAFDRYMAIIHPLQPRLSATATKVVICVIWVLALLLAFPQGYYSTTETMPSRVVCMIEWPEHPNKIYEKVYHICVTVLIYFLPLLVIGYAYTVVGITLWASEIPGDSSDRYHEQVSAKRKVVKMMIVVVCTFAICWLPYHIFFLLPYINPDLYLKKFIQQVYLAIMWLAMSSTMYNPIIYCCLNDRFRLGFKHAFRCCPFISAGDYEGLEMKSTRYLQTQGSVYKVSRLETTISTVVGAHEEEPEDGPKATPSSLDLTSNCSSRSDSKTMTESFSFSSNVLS
- assay procedure: Displacement of radioligand [3H]SP from human NK1 F264Y6.51 mutant expressed in HEK293 cells
measure name: pKi
Answers are plain numbers, as −log10 of the molar value.

These solved cases illustrate the format of a correct answer.
* Cc1cc(F)ccc1-c1cc(N2CCN(S(C)(=O)=O)C[C@H]2CO)ncc1N(C)C(=O)C(C)(C)c1cc(C(F)(F)F)cc(C(F)(F)F)c1 | 8.89
* Cc1cc(F)ccc1-c1cc(N2CCC[C@H]2CO)ncc1N(C)C(=O)C(C)(C)c1cc(C(F)(F)F)cc(C(F)(F)F)c1 | 8.55
* Cc1cc(F)ccc1-c1cc(N2CCN(S(C)(=O)=O)CC2)ncc1N(C)C(=O)C(C)(C)c1cc(C(F)(F)F)cc(C(F)(F)F)c1 | 8.85
* Cc1cc(F)ccc1-c1cc(N2CC[C@H](O)[C@H]2CO)ncc1N(C)C(=O)C(C)(C)c1cc(C(F)(F)F)cc(C(F)(F)F)c1 | 8.96
* Cc1cc(F)ccc1-c1cc(N2CCN(S(C)(=O)=O)[C@@H](C)C2)ncc1N(C)C(=O)C(C)(C)c1cc(C(F)(F)F)cc(C(F)(F)F)c1 | 9.30

Report pKi for each item below.
1. Cc1cc(F)ccc1-c1cc(N2CCC3(CC2)OCCS3(=O)=O)ncc1N(C)C(=O)C(C)(C)c1cc(C(F)(F)F)cc(C(F)(F)F)c1
2. Cc1cc(F)ccc1-c1cc(N2CC[C@H](O)C2)ncc1N(C)C(=O)C(C)(C)c1cc(C(F)(F)F)cc(C(F)(F)F)c1

Reply:
1. 8.77
2. 8.68
